test system: SW-620 colon; experiment: NCI tumour cell line growth inhibition, 48 h
quantity-measured: TGI

molecule	quantity-measured	measured-value
CC1CCC2N(C1)CC1C3(O)CC45OC6(O)C(O)CCC4(C)C6CCC5C3(O)CC(O)C1(O)C2(C)O (configuration not stated)	TGI	> 100 µM
Oc1[nH]c2cc(Cl)ccc2c1/C=c1/ccc2c(c1)N=C(c1cc(F)cc(F)c1)N=2	TGI	9.32 µM
CCOP(=O)(OCC)/C(C#N)=C/c1cccn1Cc1ccccc1	TGI	75.2 µM
O=[N+]([O-])c1cccnc1-n1cnc2ccccc21	TGI	> 100 µM
Cc1cc(Cl)cc2c1NC(=O)C2=O (tested in a mixture with another compound)	TGI	> 100 µM
CSc1ccc(/C=C2\N=C(c3ccccc3)N(/N=C/c3cc4cc(C)ccc4nc3Cl)C2=O)cc1	TGI	> 100 µM
O=C(NCCCCCCCNC(=O)OCc1ccc2c(Cl)cc(Cl)c(O)c2n1)OCc1ccc2c(Cl)cc(Cl)c(O)c2n1	TGI	0.744 µM
CC1CC[C@]2(C(=O)O)CCC3(C)C(=CCC4[C@@]5(C)CC[C@H](OS(=O)(=O)c6ccccc6)C(C)(C)C5CC[C@]43C)[C@@H]2[C@H]1C (some centres not stated)	TGI	> 100 µM
Nc1ncnc2c1ncn2Cc1cccc(CCl)c1	TGI	29.9 µM
C#CCC1(C(=O)OCC)C(=O)c2ccccc2N(C)C1=O (configuration not stated)	TGI	> 100 µM
CCN(CC)CCN(C(=O)C(C)(C)C)c1ccccc1N	TGI	> 100 µM
C[C@@H]1C[C@]2(C[C@@H](C)C3[C@@H](CC4(C)[C@@H]5CCC6C(C)(C)OC(=O)C=C[C@]67C[C@@]5(CC[C@]34C)OO7)O2)OC1=O (some centres not stated)	TGI	> 100 µM
CC(=O)OC1CC2C(=O)C(=O)C1(C)C2(C)C (configuration not stated)	TGI	> 100 µM
CCOC(=O)[C@H]1Nc2ccccc2C2c3ccccc3CC21 (some centres not stated)	TGI	> 100 µM
C/C(Nc1ccc(Cl)cc1Cl)=C1/CCOC1=O	TGI	> 100 µM
Cc1cc2cc3c(cc2c(-c2ccc(N)cc2)n1)OCO3	TGI	> 100 µM
COC1(OC)c2no[n+]([O-])c2C(OC)(OC)c2c1no[n+]2[O-]	TGI	35.8 µM
Cc1nc(-n2nc(-c3ccccc3)cc2-c2ccccc2)sc1C(/C=C/c1ccc([N+](=O)[O-])cc1)=N/NC(=O)c1ccncc1	TGI	> 100 µM
NC(=O)CO/N=C1/C(c2c(O)[nH]c3ccccc23)=Nc2ccccc21	TGI	> 100 µM
COc1ccc(-c2cc(C(O)C3CCCCN3)c3ccccc3n2)cc1 (configuration not stated)	TGI	25.2 µM
COc1cc2c(c(OC)c1OC)-c1ccc(SC)c(=O)cc1[C@@H](NC(=O)c1ccc(Cl)cc1)CC2	TGI	41.3 µM
COc1ccc(OC)c2c3c(ccc12)C(c1ccccc1)OC3=O (configuration not stated)	TGI	> 100 µM
